# test_system: MELK (Homo sapiens)
# Sequence (Q14680 whole entry, looked up): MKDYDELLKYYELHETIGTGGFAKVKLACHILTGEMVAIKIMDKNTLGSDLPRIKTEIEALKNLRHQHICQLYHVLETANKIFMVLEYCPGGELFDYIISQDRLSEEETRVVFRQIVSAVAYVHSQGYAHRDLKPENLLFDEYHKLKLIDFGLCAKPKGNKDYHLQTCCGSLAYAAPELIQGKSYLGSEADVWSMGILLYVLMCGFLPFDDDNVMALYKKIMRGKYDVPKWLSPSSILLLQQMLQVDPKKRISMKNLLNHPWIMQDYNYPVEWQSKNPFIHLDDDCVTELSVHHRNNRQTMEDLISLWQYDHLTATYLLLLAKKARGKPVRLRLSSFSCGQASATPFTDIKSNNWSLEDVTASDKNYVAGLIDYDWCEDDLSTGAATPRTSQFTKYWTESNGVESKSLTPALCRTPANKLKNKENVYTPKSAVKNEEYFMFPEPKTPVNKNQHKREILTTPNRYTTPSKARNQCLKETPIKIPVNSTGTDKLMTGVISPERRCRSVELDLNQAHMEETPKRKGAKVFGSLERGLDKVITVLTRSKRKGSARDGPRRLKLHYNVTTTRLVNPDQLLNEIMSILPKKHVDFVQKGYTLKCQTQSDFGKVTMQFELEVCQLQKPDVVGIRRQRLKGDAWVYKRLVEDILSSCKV
# assay_protocol: Kinase assay: MELK activity, phosphorylation of FITC-labeled histone H3 peptide measured by IMAP fluorescence polarization
# Assay type: biochemical
# stated_conditions: read-out: IC50 (μM) (kinase assay)
Structures can show the parent of a compound that is named as a salt.
IC50 vs 0.007 µM: less than gives Y; not less than gives N.

- compound: "CN[C@H]1CC[C@H](Nc2c(C(C)=O)cnc3ccc(-c4cc(Cl)c(O)c(Cl)c4)cc23)CC1"
  group_label: "Y"
- compound: "O=C(c1cnc2ccc(-c3cc(Cl)c(O)c(Cl)c3)cc2c1N[C@H]1C[C@H]2CC[C@@H](C1)N2)C1CC1"
  group_label: "Y"
- compound: "COc1cc(-c2ccc3ncc(C(=O)C(C)C)c(N[C@H]4CC[C@H](CN(C)C)CC4)c3c2)cc(Cl)c1O"
  group_label: "Y"
- compound: "COc1cc(-c2ccc3ncc(C(=O)C4CC4)c(N[C@H]4CC[C@H](CN5CCCC5)CC4)c3c2)cc(Cl)c1O"
  group_label: "Y"
- compound: "CN(C)C1CCN(c2ccc(Nc3c(C(=O)C4CC4)cnc4ccc(-c5cc(F)c(O)c(Cl)c5)cc34)cn2)C1 (centres unmarked)"
  group_label: "N"
- compound: "CC(=O)c1cnc2ccc(-c3cc(Cl)c(O)c(Cl)c3)cc2c1Nc1cccc(CCN(C)C)c1"
  group_label: "Y"
- compound: "NCc1ccc(Nc2c(C(=O)C3CC3)cnc3ccc(-c4cc(F)c(O)c(Cl)c4)cc23)cc1"
  group_label: "N"
- compound: "COc1cc(-c2ccc3ncc(C(C)=O)c(N[C@H]4CC[C@H](CN5CCC[C@@H]5CO)CC4)c3c2)cc(Cl)c1O"
  group_label: "Y"
- compound: "CC(=O)c1cnc2ccc(-c3cc(F)c(O)c(Cl)c3)cc2c1Nc1cnn(C2CCN(C)CC2)c1 [Example 805, hydrochloride]"
  group_label: "Y"
- compound: "COc1cc(-c2ccc3ncc(C(=O)C4CC4)c(Nc4ccc(N5CCC(N)CC5)nc4)c3c2)cc(Cl)c1O"
  group_label: "Y"
- compound: "COc1cc(-c2ccc3ncc(C(=O)C4CC4)c(Nc4ccc(CN)cc4)c3c2)cc(Cl)c1O"
  group_label: "Y"
- compound: "CN(C)CCc1cccc(Nc2c(C(=O)C3CC3)cnc3ccc(-c4cc(F)c(O)c(F)c4)cc23)c1"
  group_label: "N"
- compound: "COc1cc(-c2ccc3ncc(C(=O)C4CC4)c(Nc4cnc(N5CCC(N)CC5)nc4)c3c2)cc(Cl)c1O"
  group_label: "Y"
- compound: "NC1CCN(c2cc(Nc3c(C(=O)C4CC4)cnc4ccc(-c5cc(Cl)c(O)c(Cl)c5)cc34)ccn2)CC1"
  group_label: "Y"
- compound: "COc1cc(-c2ccc3ncc(C(=O)C4CC4)c(NC4CCC(N5CC[C@@H](F)C5)CC4)c3c2)cc(Cl)c1O (some centres unmarked)"
  group_label: "Y"
- compound: "O=C(c1cnc2ccc(-c3cc(Cl)c(O)c(Cl)c3)cc2c1N1CCC(C2CCNCC2)CC1)C1CC1"
  group_label: "Y"
- compound: "Nc1ccc(Nc2c(C(=O)C3CC3)cnc3ccc(-c4cc(Cl)c(O)c(Cl)c4)cc23)cn1"
  group_label: "N"
- compound: "COc1cc(-c2ccc3ncc(C(=O)C4CC4)c(Nc4ccc(OCCN(C)C)nc4)c3c2)cc(Cl)c1O"
  group_label: "Y"
- compound: "NC1CCCN(c2ncc(Nc3c(C(=O)C4CC4)cnc4ccc(-c5cc(Cl)c(O)c(Cl)c5)cc34)cn2)C1 (centres unmarked)"
  group_label: "Y"
- compound: "COc1cc(-c2ccc3ncc(C(=O)C4CC4)c(Nc4ccc(N5CCCC(N)C5)nc4)c3c2)cc(Cl)c1O (centres unmarked)"
  group_label: "Y"
- compound: "COc1cc(-c2ccc3ncc(C(C)=O)c(Nc4ccc(N5CCC(N)C5)nc4)c3c2)cc(Cl)c1O (centres unmarked)"
  group_label: "Y"
- compound: "COc1cc(-c2ccc3ncc(C(=O)C4CC4)c(Nc4ccc(CN5CCN(C)CC5)nc4)c3c2)cc(Cl)c1O"
  group_label: "N"
- compound: "COc1cc(-c2ccc3ncc(C(=O)C4CC4)c(Nc4ccc(NCCO)nc4)c3c2)cc(Cl)c1O"
  group_label: "N"
- compound: "CCCC(=O)c1cnc2ccc(-c3cc(Cl)c(O)c(Cl)c3)cc2c1Nc1ccc(CN(C)C)cc1"
  group_label: "Y"
- compound: "COc1cc(-c2ccc3ncc(C(=O)C4CC4)c(-c4cn[nH]c4)c3c2)cc(Cl)c1O"
  group_label: "N"
- compound: "CC(=O)c1cnc2ccc(-c3cc(F)c(O)c(F)c3)cc2c1N[C@H]1CC[C@H](CN(C)C)CC1"
  group_label: "N"
- compound: "CN(C)CCc1cccc(Nc2c(C(=O)C3CC3)cnc3ccc(-c4cc(F)c(O)c(Cl)c4)cc23)c1"
  group_label: "N"
- compound: "CCC(=O)c1cnc2ccc(-c3cc(Cl)c(O)c(OC)c3)cc2c1N[C@H]1CC[C@H](CN(C)C)CC1"
  group_label: "Y"

Origin of measurements: patent US9120749B2
